Test: HepG2 cytotoxicity, primary screen, cytotoxicity control for P. falciparum antimalarial project, cell-based, ATP luminescence (AID 2303);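 also: 0% = DMSO wells and 100% = digitonin-killed cells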
Settings: HepG2 viability, 24-48 h, at 10 µM, hits give high values
The molecules listed here are annotated with their inhibition.
Note: unit % is implicit; provide only the numeric part.

Here is how some molecules turned out for inhibition.
{"columns": ["molecule", "endpoint result"],
 "data": [
  ["CCNc1cc(C)nc(Nc2ccc(NC(=O)c3ccccc3Br)cc2)n1", 46],
  ["N#Cc1ccc(N(CCOC(=O)c2ccc(Br)s2)Cc2ccccc2C(F)(F)F)cc1C(F)(F)F", 8],
  ["COc1ccc(NC(=O)C2c3ccccc3C(=O)N(C3CCCC3)C2c2cccs2)cc1OC (stereo not given)", -5],
  ["CNC(=O)c1cc(NCCCNCc2ccc(Cl)c(C(F)(F)F)c2)nc2ccccc12", 25],
  ["CC(C)CCN1CCC(Oc2ccc(NC(=O)c3ccsc3)cc2Cl)CC1", 19]
]}

Using the record for COCCN1CCN(Cc2ccc(-c3ccc(-c4nc5c(C)cccc5[nH]4)s3)cc2)CC1 , report its inhibition.
32

Using the record for COc1ccccc1-c1nc2nc(N)nc(N)c2nc1-c1ccccc1OC , report its inhibition.
27

Using the record for COc1ccc(C2CC(=O)C3=C(C2)NC(C)=C(C(=O)OC(C)C)C3c2cccc(O)c2)cc1OC (stereo not given) , report its inhibition.
-2
